Where do these numbers come from? They come from patent US6960559.

# measured_target: C6 plasma membrane associated metalloendoprotease (rat C6 glioblastoma cells) (rat)
# experiment_summary: cell-based or functional assay
The star is where a group is joined. Cbz = O=C(OCc1ccccc1)*
observed_property: IC50 on CNS myelin [µM], half maximal inhibition of C6 cell spreading (µM)

binder	numeric_readout
Cbz-Ala-Phe-NH2 (SMILES C[C@H](NC(=O)OCc1ccccc1)C(=O)N[C@@H](Cc1ccccc1)C(N)=O) [cbz-AF-NH2]	600
Cbz-Gly-Phe-NH2 (SMILES NC(=O)[C@H](Cc1ccccc1)NC(=O)CNC(=O)OCc1ccccc1) [carbobenzoxy-Gly-Phe-amide]	600
Cbz-Tyr-Tyr-OH (SMILES O=C(N[C@@H](Cc1ccc(O)cc1)C(=O)N[C@@H](Cc1ccc(O)cc1)C(=O)O)OCc1ccccc1) [carbobenzoxy-tyrosine-tyrosine]	300

(P) Cbz-Phe-Ala-NH2 (SMILES C[C@H](NC(=O)[C@H](Cc1ccccc1)NC(=O)OCc1ccccc1)C(N)=O) [cbz-FA-NH2]
(Q) Cbz-Gly-Phe-Phe-NH2 (SMILES NC(=O)[C@H](Cc1ccccc1)NC(=O)[C@H](Cc1ccccc1)NC(=O)CNC(=O)OCc1ccccc1) [Carbobenzoxy-Gly-Phe-Phe-amide]
I'm curious, which of these has a smaller IC50 on CNS myelin [µM], half maximal inhibition of C6 cell spreading number: P or Q ? Give the chosen item's label as your response.
Q
